assay: Displacement of [3H]prazosin from alpha1 adrenoceptor in rat cortex membrane; type: cell membranes
pKi: −log10 of the molar value.
Label Fulfilled when pKi is at or above 7; anything below gets Not fulfilled.

STRUCTURE AS SMILES: O=c1ccc(-n2ccc3ccccc32)nn1CCCCN1CCN(c2ccc3c(c2)OCCO3)CC1
ASSIGNED CLASS: Fulfilled
//
STRUCTURE AS SMILES: CCOc1ccccc1N1CCN(CCNC(=O)Cn2nc(-n3ccnc3)ccc2=O)CC1
ASSIGNED CLASS: Not fulfilled
//
STRUCTURE AS SMILES: CCOc1ccccc1N1CCN(CCCCn2nc(-n3ccc4ccccc43)ccc2=O)CC1
ASSIGNED CLASS: Fulfilled
//
STRUCTURE AS SMILES: O=c1ccc(-n2ccnc2)nn1CCCCN1CCN(c2ncccn2)CC1
ASSIGNED CLASS: Not fulfilled
//
STRUCTURE AS SMILES: CC(C)Oc1ccccc1N1CCN(CCNC(=O)Cn2nc(-n3ccnc3)ccc2=O)CC1
ASSIGNED CLASS: Not fulfilled
//
STRUCTURE AS SMILES: CC(C)Oc1ccccc1N1CCN(CCCCn2nc(-n3ccnc3)ccc2=O)CC1
ASSIGNED CLASS: Fulfilled
//
STRUCTURE AS SMILES: CCOc1ccccc1N1CCN(CCCCn2nc(-n3ccnc3)ccc2=O)CC1
ASSIGNED CLASS: Fulfilled
//
STRUCTURE AS SMILES: COc1ccccc1N1CCN(C(=O)CCCn2nc(-n3ccnc3)ccc2=O)CC1
ASSIGNED CLASS: Not fulfilled
//
STRUCTURE AS SMILES: CC(C)Oc1ccccc1N1CCN(CCCCn2nc(-n3ccc4ccccc43)ccc2=O)CC1
ASSIGNED CLASS: Fulfilled
//
STRUCTURE AS SMILES: COc1ccccc1N1CCN(CCNC(=O)Cn2nc(-n3ccnc3)ccc2=O)CC1
ASSIGNED CLASS: Not fulfilled

###

test: Displacement of [3H]rauwolscine from alpha2 adrenoceptor in rat cortex membrane; type: cell membranes
ATTRIBUTE MEASURED: log10(Ki) (log10 of the value in nM)

STRUCTURE AS SMILES: COc1ccccc1N1CCN(CCNC(=O)Cn2nc(-n3ccnc3)ccc2=O)CC1
log10(Ki): 3.47
--
STRUCTURE AS SMILES: COC(=O)[C@H]1[C@H]2C[C@H]3c4[nH]c5ccccc5c4CCN3C[C@H]2CC[C@@H]1O
log10(Ki): 0.60
--
STRUCTURE AS SMILES: O=c1ccc(-n2ccnc2)nn1CCCCN1CCN(c2ncccn2)CC1
log10(Ki): 3.19
--
STRUCTURE AS SMILES: CC(C)Oc1ccccc1N1CCN(C(=O)CCCn2nc(-n3ccnc3)ccc2=O)CC1
log10(Ki): 3.13
--
STRUCTURE AS SMILES: CC(C)Oc1ccccc1N1CCN(CCCCn2nc(-n3ccnc3)ccc2=O)CC1
log10(Ki): 1.64
--
STRUCTURE AS SMILES: COc1ccccc1N1CCN(C(=O)CCCn2nc(-n3ccnc3)ccc2=O)CC1
log10(Ki): 3.28
--
STRUCTURE AS SMILES: CCOc1ccccc1N1CCN(CCCCn2nc(-n3ccnc3)ccc2=O)CC1
log10(Ki): 2.17
--
STRUCTURE AS SMILES: O=c1ccc(-n2ccc3ccccc32)nn1CCCCN1CCN(c2ncccn2)CC1
log10(Ki): 2.86
--
STRUCTURE AS SMILES: O=c1ccc(-n2ccnc2)nn1CCCCN1CCN(c2ccc3c(c2)OCCO3)CC1
log10(Ki): 3.00
--
STRUCTURE AS SMILES: O=c1ccc(-n2ccnc2)nn1CCCCN1CCN(c2cccc(C(F)(F)F)c2)CC1
log10(Ki): 2.82
--
STRUCTURE AS SMILES: CCOc1ccccc1N1CCN(C(=O)CCCn2nc(-n3ccnc3)ccc2=O)CC1
log10(Ki): 3.25
--
STRUCTURE AS SMILES: CC(C)Oc1ccccc1N1CCN(CCNC(=O)Cn2nc(-n3ccnc3)ccc2=O)CC1
log10(Ki): 3.29
--
STRUCTURE AS SMILES: CC(C)Oc1ccccc1N1CCN(CCCCn2nc(-n3ccc4ccccc43)ccc2=O)CC1
log10(Ki): 1.30
--
STRUCTURE AS SMILES: O=c1ccc(-n2ccc3ccccc32)nn1CCCCN1CCN(c2ccc3c(c2)OCCO3)CC1
log10(Ki): 2.68
--
STRUCTURE AS SMILES: O=c1ccc(-n2ccc3ccccc32)nn1CCCCN1CCN(c2cccc(C(F)(F)F)c2)CC1
log10(Ki): 2.66
--
STRUCTURE AS SMILES: CCOc1ccccc1N1CCN(CCCCn2nc(-n3ccc4ccccc43)ccc2=O)CC1
log10(Ki): 1.85
--
STRUCTURE AS SMILES: CCOc1ccccc1N1CCN(CCNC(=O)Cn2nc(-n3ccnc3)ccc2=O)CC1
log10(Ki): 3.50

###

species: Rattus norvegicus; assay: Ratio of Ki for alpha2 adrenoceptor in rat cortex membrane to Ki for alpha1 adrenoceptor in rat cortex membrane; assay type: cell membranes
Label True when Ratio Ki is at or above 4; anything below gets False.

STRUCTURE AS SMILES: COc1ccccc1N1CCN(CCNC(=O)Cn2nc(-n3ccnc3)ccc2=O)CC1
ASSIGNED CLASS: True
//
STRUCTURE AS SMILES: CC(C)Oc1ccccc1N1CCN(CCCCn2nc(-n3ccc4ccccc43)ccc2=O)CC1
ASSIGNED CLASS: True
//
STRUCTURE AS SMILES: CC(C)Oc1ccccc1N1CCN(CCCCn2nc(-n3ccnc3)ccc2=O)CC1
ASSIGNED CLASS: True
//
STRUCTURE AS SMILES: CCOc1ccccc1N1CCN(C(=O)CCCn2nc(-n3ccnc3)ccc2=O)CC1
ASSIGNED CLASS: False
//
STRUCTURE AS SMILES: CC(C)Oc1ccccc1N1CCN(CCNC(=O)Cn2nc(-n3ccnc3)ccc2=O)CC1
ASSIGNED CLASS: True
//
STRUCTURE AS SMILES: O=c1ccc(-n2ccc3ccccc32)nn1CCCCN1CCN(c2cccc(C(F)(F)F)c2)CC1
ASSIGNED CLASS: True
//
STRUCTURE AS SMILES: CCOc1ccccc1N1CCN(CCNC(=O)Cn2nc(-n3ccnc3)ccc2=O)CC1
ASSIGNED CLASS: True
//
STRUCTURE AS SMILES: COc1ccccc1N1CCN(C(=O)CCCn2nc(-n3ccnc3)ccc2=O)CC1
ASSIGNED CLASS: False
//
STRUCTURE AS SMILES: CCOc1ccccc1N1CCN(CCCCn2nc(-n3ccc4ccccc43)ccc2=O)CC1
ASSIGNED CLASS: True
//
STRUCTURE AS SMILES: CCOc1ccccc1N1CCN(CCCCn2nc(-n3ccnc3)ccc2=O)CC1
ASSIGNED CLASS: True
//
STRUCTURE AS SMILES: O=c1ccc(-n2ccnc2)nn1CCCCN1CCN(c2ncccn2)CC1
ASSIGNED CLASS: False
//
STRUCTURE AS SMILES: CC(C)Oc1ccccc1N1CCN(C(=O)CCCn2nc(-n3ccnc3)ccc2=O)CC1
ASSIGNED CLASS: False
//
STRUCTURE AS SMILES: O=c1ccc(-n2ccnc2)nn1CCCCN1CCN(c2cccc(C(F)(F)F)c2)CC1
ASSIGNED CLASS: True
//
STRUCTURE AS SMILES: O=c1ccc(-n2ccc3ccccc32)nn1CCCCN1CCN(c2ncccn2)CC1
ASSIGNED CLASS: True
//
STRUCTURE AS SMILES: O=c1ccc(-n2ccc3ccccc32)nn1CCCCN1CCN(c2ccc3c(c2)OCCO3)CC1
ASSIGNED CLASS: True

###

target: Sodium-dependent serotonin transporter (Homo sapiens, UniProt P31645); type: cell membranes
Sequence (P31645 whole entry): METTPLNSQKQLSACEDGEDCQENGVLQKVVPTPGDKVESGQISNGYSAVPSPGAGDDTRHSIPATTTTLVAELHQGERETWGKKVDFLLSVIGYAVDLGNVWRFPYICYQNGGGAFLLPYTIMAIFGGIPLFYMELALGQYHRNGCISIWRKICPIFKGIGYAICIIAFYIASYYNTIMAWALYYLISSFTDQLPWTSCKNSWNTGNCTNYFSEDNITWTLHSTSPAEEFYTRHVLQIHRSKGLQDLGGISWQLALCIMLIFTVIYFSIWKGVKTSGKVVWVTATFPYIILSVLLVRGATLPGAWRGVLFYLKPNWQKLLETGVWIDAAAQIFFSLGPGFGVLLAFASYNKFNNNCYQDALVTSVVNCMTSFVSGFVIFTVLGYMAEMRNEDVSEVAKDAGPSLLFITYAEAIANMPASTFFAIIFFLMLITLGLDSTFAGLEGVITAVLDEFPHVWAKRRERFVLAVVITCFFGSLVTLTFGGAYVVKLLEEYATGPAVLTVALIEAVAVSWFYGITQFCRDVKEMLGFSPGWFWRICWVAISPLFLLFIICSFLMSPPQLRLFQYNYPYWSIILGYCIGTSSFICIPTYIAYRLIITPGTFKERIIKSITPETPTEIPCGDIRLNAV
Here, each record is paired with measured Ki data.

STRUCTURE AS SMILES: CC(C)Oc1ccccc1N1CCN(CCCCn2nc(-n3ccc4ccccc43)ccc2=O)CC1
Ki: 1.04 µM

STRUCTURE AS SMILES: COc1ccccc1N1CCN(C(=O)CCCn2nc(-n3ccnc3)ccc2=O)CC1
Ki: > 10 µM

STRUCTURE AS SMILES: CC(C)Oc1ccccc1N1CCN(C(=O)CCCn2nc(-n3ccnc3)ccc2=O)CC1
Ki: > 10 µM

STRUCTURE AS SMILES: O=c1ccc(-n2ccnc2)nn1CCCCN1CCN(c2ccc3c(c2)OCCO3)CC1
Ki: > 10 µM

STRUCTURE AS SMILES: COc1ccccc1N1CCN(CCNC(=O)Cn2nc(-n3ccnc3)ccc2=O)CC1
Ki: 3.46 µM

STRUCTURE AS SMILES: CCOc1ccccc1N1CCN(C(=O)CCCn2nc(-n3ccnc3)ccc2=O)CC1
Ki: > 10 µM

STRUCTURE AS SMILES: O=c1ccc(-n2ccc3ccccc32)nn1CCCCN1CCN(c2ccc3c(c2)OCCO3)CC1
Ki: 0.177 µM

STRUCTURE AS SMILES: CC(C)Oc1ccccc1N1CCN(CCCCn2nc(-n3ccnc3)ccc2=O)CC1
Ki: > 10 µM
